The reported measurements were obtained from patent US4015002A.

Test system: anaethestized dog
test method notes: Action on femoral delivery, aortal pressure and cardiac rhythm in the anaesthetized dog
Type: in vivo
test context: anaesthetized dog, i.v., 1/10 of mouse LD50
Protocol: This was investigated in an anaethestized dog, the compounds under test being administered by intraveneous perfusion (over 5 minutes). The various compounds under test were compared by administering all of them at a dose per kilogram corresponding to 1/10 of the mouse LD50 (I.V.). Simultaneously were measured: variations of femoral delivery, aortal pressure, and cardiac rhythm. […]
recorded endpoint: Vasodilator action (in words)

Field: example entries. Status: answers known.
INSERT INTO results (compound, result) VALUES
  ('O=C1C=C2CCCCC2N1c1cccc(OCCN2CCCCC2)c1 (centres unmarked)', 'vasodilators'),
  ('CCN(CC)CCOc1cccc(N2C(=O)C=C3CCCCC32)c1 (centres unmarked)', 'clearly vasodilators'),
  ('O=C1C=C2CCCCC2N1c1ccc(OCCN2CCCCC2)c(Cl)c1 (centres unmarked)', 'clearly vasodilators'),
  ('O=C1C=C2CCCCC2N1c1ccc(OCCN2CCOCC2)cc1 (centres unmarked)', 'clearly vasodilators');

Query compound follows.
anaethestized dog Vasodilator action (in words) of CN(C)CCOc1cccc(N2C(=O)C=C3CCCCC32)c1 (centres unmarked) is vasodilators

###

System: anaethestized dog
test method notes: Action on femoral delivery, aortal pressure and cardiac rhythm in the anaesthetized dog
Format: in vivo
test context: anaesthetized dog, i.v.
recorded endpoint: Aortal pressure (in words)

INSERT INTO results (molecule, result) VALUES
  ('CC(C)N(CCOc1ccc(N2C(=O)C=C3CCCCC32)cc1Cl)C(C)C (stereo not drawn)', 'hypertensives'),
  ('CN(C)CCOc1cccc(N2C(=O)C=C3CCCCC32)c1 (stereo not drawn)', 'hypotension'),
  ('CC(C)N(CCOc1cccc(N2C(=O)C=C3CCCCC32)c1)C(C)C (stereo not drawn)', 'hypertensives'),
  ('O=C1C=C2CCCCC2N1c1cccc(OCCN2CCCCC2)c1 (stereo not drawn)', 'hypotension');

###

Reported LD50 values for the following compounds.
test method notes: Toxicity, intravenous in the mouse
test context: in vivo, i.v.
Value expressed in mg/kg; do not type the unit.

INSERT INTO assay_data (compound, quantitative_result) VALUES
  ('CCN(CC)CCOc1ccc(N2C(=O)C(c3ccccc3)=C3CCCCC32)cc1 (centres unmarked)', 38),
  ('CN(C)CCCOc1ccc(N2C(=O)C=C3CCCCC32)cc1 (centres unmarked)', 85),
  ('CCN(CC)CCOc1cccc(N2C(=O)C=C3CCCCC32)c1 (centres unmarked)', 90),
  ('CN(C)CCOc1ccc(N2C(=O)C(c3ccccc3)=C3CCCCC32)cc1 (centres unmarked)', 10),
  ('O=C1C=C2CCCCC2N1c1ccc(OCCN2CCOCC2)cc1 (centres unmarked)', 225);

Query compound follows.
The reported value for O=C1C=C2CCCCC2N1c1ccc(OCCN2CCOCC2)c(Cl)c1 (centres unmarked) in terms of LD50 is 120

###

test method notes: Toxicity, intravenous in the mouse
test context: in vivo, i.v.
Reported LD50 values for the following compounds.
Value expressed in mg/kg; do not type the unit.

Field: example entries. Status: answers known.
INSERT INTO assay_data (compound, unit_annotation, quantitative_result) VALUES
  ('O=C1C=C2CCCCC2N1c1cccc(OCCN2CCCCC2)c1 (centres unmarked)', 'mg/kg', 130),
  ('CCN(CC)CCOc1ccc(N2C(=O)C=C3CCCCC32)cc1Cl (centres unmarked)', 'mg/kg', 22),
  ('CC(C)N(CCOc1cccc(N2C(=O)C=C3CCCCC32)c1)C(C)C (centres unmarked)', 'mg/kg', 55),
  ('O=C1C=C2CCCCC2N1c1ccc(OCCN2CCCCC2)c(Cl)c1 (centres unmarked)', 'mg/kg', 25);

The reported value for CN(C)CCOc1ccc(N2C(=O)C=C3CCCCC32)cc1Cl (centres unmarked) in terms of LD50 is 15
